# Test system: P. falciparum 3D7 parasites
# method.notes: P. falciparum growth inhibition assay, 1-cycle (72 h treatment), SYBR DNA staining (library screen at 2 μg/mL and dose-response)
# Assay type: cell-based, Plasmodium falciparum
# test.settings: Plasmodium falciparum, 3D7; library screen at 2 μg/mL, 72 h, % growth, replicate 2; read-out: Pf_72h_%Growth_Rep2
Where a SMILES comes first, the peptide text is derived from it. [ ]: non-standard residue; d: D form. aIle = CC[C@@H](C)[C@H](N)C(=O)O
Some compounds, each annotated with its measured activity at 2 µg/mL.
measurement.name: activity at 2 µg/mL

>>> value_observed("C=C(C)[C@@H]1CC[C@]2(C(=O)O)CC[C@]3(C)[C@H](CC[C@@H]4[C@@]5(C)CC[C@H](O)C(C)(C)[C@@H]5CC[C@]43C)[C@@H]12")
"76.9%"
>>> value_observed("CC[C@@H]1/C=C(\\C)C[C@H](C)C[C@H](OC)[C@H]2O[C@@](O)(C(=O)C(=O)N3CCCC[C@H]3C(=O)O[C@H](/C(C)=C/[C@@H]3CC[C@@H](O)[C@H](OC)C3)[C@H](C)[C@@H](O)CC1=O)[C@H](C)C[C@@H]2OC")
"50.6%"
>>> value_observed("C=CC(C)(C)c1[nH]c2c(CC=C(C)C)cc(CC=C(C)C)cc2c1C[C@@H]1NC(=O)[C@H](C)NC1=O")
"35.1%"
>>> value_observed("COc1cc(C)c(C(=O)Oc2cc(C)c(C(=O)O)c(O)c2)c(O)c1")
"86.5%"
>>> value_observed("CC[C@@H](C)[C@@H]1NC(=O)[C@@H](CC(C)C)NC(=O)[C@H](CC(C)C)NC(=O)[C@H](Cc2c[nH]c3ccccc23)NC(=O)CNC(=O)[C@H](CC(N)=O)NC1=O [Desotamide] (cyclo(GWL[dL][aIle]N))")
"64.4%"
>>> value_observed("C[C@H]1O[C@H](O[C@H]2[C@H](O)[C@@H](O)[C@@H](O[C@H]3[C@H](O)[C@@H](O)C(O)O[C@@H]3CO)O[C@@H]2CO)[C@H](O)[C@@H](O)[C@@H]1N[C@H]1C=C(CO)[C@@H](O)[C@H](O)[C@H]1O (stereo partly shown)")
"87.2%"
>>> value_observed("CC(/C=C/[C@@]1(C)[C@H](C)CCC(=O)[C@@H]1C)=C\\Cc1c(O)c(Cl)c(C)c(C=O)c1O")
"84.8%"
>>> value_observed("CC(=O)OCC1=C[C@@H]2OC(=O)C3=CO[C@@H](O[C@@H]4O[C@H](CO)[C@@H](O)[C@H](O)[C@H]4O)[C@H]1[C@@H]32 [Asperuloside]")
"89.3%"
>>> value_observed("C[C@@H](O)[C@H]1C(=O)N2C(C(=O)[O-])=C(SC3Cn4cnc[n+]4C3)[C@H](C)[C@H]12 (stereo partly shown)")
"84.8%"
>>> value_observed("CC(C)[C@H]1C(=O)O[C@H](C(C)C)C(=O)N(C)[C@@H](C(C)C)C(=O)O[C@H](C(C)C)C(=O)N(C)[C@@H](C(C)C)C(=O)O[C@H](C(C)C)C(=O)N1C")
"1.65%"
>>> value_observed("C[C@H]1c2cccc(O)c2C(=O)C2=C(O)[C@]3(O)C(=O)C(C(N)=O)=C(O)[C@@H](N(C)C)[C@@H]3[C@@H](O)[C@@H]21 [Doxycycline, reference compound]")
"41.9%"
>>> value_observed("Cc1cc(O)cc2oc(=O)c3c(O)cc(O)cc3c12")
"91.2%"
>>> value_observed("[N-]=[N+]=NCC(=O)N[C@H](CO)[C@H](O)c1ccc([N+](=O)[O-])cc1")
"84.9%"
>>> value_observed("C[C@H]1C(=O)N2c3ccccc3[C@@]3(O)C[C@@H]4C(=O)N[C@](C)(c5nc6ccccc6c(=O)n54)N1[C@@H]23")
"108%"
>>> value_observed("C[C@@]1(CO)[C@H](O)CC[C@@]2(C)[C@H]1CC[C@H]1C[C@@H]3C[C@@]12CC[C@]3(O)CO")
"4.32%"
>>> value_observed("Cc1cc(O)c(C=O)c2c1C(=O)Oc1c(COC(=O)/C=C/C(=O)O)c(O)c(C(=O)O)c(C)c1O2")
"90.2%"

###

# System: P. falciparum 3D7 parasites
# method.notes: P. falciparum growth inhibition assay, 2-cycle (120 h treatment), delayed-death screen and dose-response
# Format: cell-based, Plasmodium falciparum
# test.settings: P. falciparum, 120 h, parasite screen 2 μg/mL, % growth, replicate 2
*1 amine or outer side, *2 acyl side, *3 side chain or, on linkers, in order; H or OH if unused. Where a SMILES comes first, the peptide text is derived from it. Bridges are numbered along the chain shown (N, C = ends). [ ]: non-standard residue; d: D form. The star is where a group is joined. X1 = O=C1C[C@@H](C(=O)[*:2])N([*:1])C[C@H]1CS[C@@H]1CN2CCC1CC2; NMePhe(4-NMe2) = CN[C@@H](Cc1ccc(N(C)C)cc1)C(=O)O; Picolinoyl(3-OH) = O=C(c1ncccc1O)*; Phg = N[C@H](C(=O)O)c1ccccc1; dAbu = CC[C@@H](N)C(=O)O
Please mark Condition met if the recorded Pf_120h_%Growth_Rep2 is equal to or greater than 70%, and Condition not met if it falls below.

>>> label_value("CC(=O)C1C(C)=CC(=O)c2c1c(-c1c3c(c(O)c4c(O)cccc14)C(=O)CC(C)(O)C3C(C)=O)c1cccc(O)c1c2O (centres unmarked)")
"Condition not met"
>>> label_value("CC(=O)O[C@H]1C[C@]2(C)[C@H]3CC[C@]4(C)Oc5oc(C)cc(=O)c5C[C@H]4[C@]3(C)CC[C@H]2C(C)(C)[C@H]1OC(C)=O")
"Condition met"
>>> label_value("CN(N=O)C(=O)N[C@H]1C(O)O[C@H](CO)[C@@H](O)[C@@H]1O (mixture of isomers)")
"Condition met"
>>> label_value("CC(/C=C/[C@H](O)[C@@H](C)/C=C/C(=O)O)=C\\C[C@H]1O[C@]2(CC[C@@H]1C)CC[C@@](CCC(C)C)(OC(=O)CCC(=O)O)[C@H](/C=C/C(C)=C/C(=O)O)O2")
"Condition not met"
>>> label_value("C[C@H]1O[C@@H]2CC(=O)O[C@@H]2C2=C1C(=O)c1c(O)cc3c(c1C2=O)[C@H]1C[C@@H](N(C)C)[C@H](O)[C@]3(C)O1")
"Condition not met"
>>> label_value("Nc1cc2nc3ccccc3oc-2cc1=O")
"Condition not met"
>>> label_value("CCO[C@@H]1[C@@H](OC)[C@H](C)O[C@@H](O[C@H]2C[C@H]3[C@@H]4C=C5C(=O)[C@H](C)[C@@H](O[C@H]6CC[C@H](N(C)C)[C@@H](C)O6)CCC[C@H](CC)OC(=O)C[C@H]5[C@@H]4C=C(C)[C@@H]3C2)[C@@H]1OC [spinosyn L, 3'-Ethoxy-]")
"Condition not met"
>>> label_value("CN1CCC2(c3cccc4c3NC3N(C)CCC43c3cccc4c3NC3N(C)CCC43C34CCN(C)C3Nc3c(C56CCN(C)C5Nc5ccccc56)cccc34)c3ccccc3NC12 (centres unmarked)")
"Condition not met"
>>> label_value("CCC1C=CC2C=C(C)C(OC3CC(C)(O)C(NC(C)=O)C(C)O3)C(C)C=C(C)C3C=CC4C(OC5CC(O)C(OC6CC(OC7CCC(O)C(C)O7)C(OC7CC(O)C(O)C(C)O7)C(C)O6)C(C)O5)C(C)CC(C)C4C3(C)C(O)=C3C(=O)OC2(C1)C3=O (centres unmarked)")
"Condition not met"
>>> label_value("CC[C@H]1CCC[C@H](O[C@H]2CC[C@H](N(C)C)[C@@H](C)O2)[C@@H](C)C(=O)C2=C[C@@H]3[C@@H](C=C(C)[C@@H]4C[C@@H](O[C@@H]5O[C@@H](C)[C@H](OC)[C@@H](OC)[C@H]5OC)C[C@@H]34)[C@@H]2CC(=O)O1 [Spinosyn D]")
"Condition not met"
>>> label_value("CC[C@H]1NC(=O)[C@@H](NC(=O)c2ncccc2O)[C@@H](C)OC(=O)[C@H](c2ccccc2)NC(=O)[C@@H]2CC(=O)[C@H](CS[C@@H]3CN4CCC3CC4)CN2C(=O)[C@H](Cc2ccc(N(C)C)cc2)N(C)C(=O)[C@@H]2CCCN2C1=O.CS(=O)(=O)O [Quinupristin mesylate] ({Picolinoyl(3-OH)}-T[dAbu]P[NMePhe(4-NMe2)][X1][Phg]; ester 1-C)")
"Condition met"

###

# Tested on: P. falciparum 3D7 parasites
# method.notes: P. falciparum growth inhibition assay, 2-cycle (120 h treatment), delayed-death screen and dose-response
# Assay type: cell-based, Plasmodium falciparum
# test.settings: P. falciparum 3D7, 120 h, parasite screen at 2 μg/mL, % growth, replicate 2
Some compounds, each annotated with its measured Pf_120h_%Growth_Rep2.
measurement.name: Pf_120h_%Growth_Rep2 (%)

>>> value_observed("CCCCCCC(=O)CCCCCC/C=C/C[C@@H](O)[C@H](O)[C@@](N)(CO)C(=O)O [BIA-M1219]")
36.84
>>> value_observed("Cc1cc(O)c(C)c(O)c1C(=O)O [BIA-M1661]")
68.25
>>> value_observed("CCC1OC2(CCC1C)CC1CC(CC=C(C)CC(C)C=CC=C3COC4C(=NO)C(C)=CC(C(=O)O1)C34O)O2 (stereo not drawn) [BIA-M1532]")
16.57
>>> value_observed("CC1=CCC2CC(CC3(CCC(C)C(C)O3)O2)OC(=O)C2C=C(C)C(O)C3OCC(=CC=CC(C)C1)C23O (stereo not drawn) [BIA-M1051]")
24.90
>>> value_observed("CC(C)Cc1cnc(C(O)C(C)C)c(=O)n1O (stereo not drawn) [BIA-N1641]")
132.16
>>> value_observed("Cc1cc(O)cc(O)c1C(=O)O [BIA-O1657]")
131.31
